Cited source: the supplement of paper PMC8728848

# test_target: Man(a1-2)Man(a1-3)[Man(a1-2)Man(a1-6)]Man
# test_summary: glycan array binding signal (z-score within array); higher = stronger binding
# condition_summary: glycan notation: IUPAC condensed, linker removed
The entries come from a sample that favours the strongest signals as a whole.
property_name: glycan array binding signal (z-score)

Answered examples (3):
TIM1 (protein) ADGIQSVKVGGEAGPSVTLPCHYSGAVTSMCWNRGSCSLFTCQNGIVWTNGTHVTYRKDTRYKLLGDLSRRDVSLTIENTAVSDSGVYCCRVEHRGWFNDMKITVSLEIVPPHHHHHH = -0.292
FGF1 (Homo sapiens), P05230 (protein) MAEGEITTFTALTEKFNLPPGNYKKPKLLYSNGGHFLRILPDGTVDGTRDRSDQHIQLQLSAESVGEVYIKSTETGQYLAMTDGLLYGSQTPNEECLFLERLEENHYNTYISKHAEKNWFVGLKKNGSCKRGPRTHYGQAILFLPLPASSED = -0.916
CPA (Cicer arietinum) (protein) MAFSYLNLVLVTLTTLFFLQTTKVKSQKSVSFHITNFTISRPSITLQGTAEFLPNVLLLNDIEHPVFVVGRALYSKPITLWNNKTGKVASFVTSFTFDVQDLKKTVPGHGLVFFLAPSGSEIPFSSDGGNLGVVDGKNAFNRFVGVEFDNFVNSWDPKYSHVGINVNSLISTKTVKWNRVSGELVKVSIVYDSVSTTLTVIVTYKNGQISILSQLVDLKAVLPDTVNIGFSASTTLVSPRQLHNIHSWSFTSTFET = -0.461

Req: Item Calsepa (Calystegia sepium), P93114 (protein) MAVPMDTISGPWGNNGGNFWSFRPVNKINQIVISYGGGGNNPIALTFSSTKADGSKDTITVGGGGPDSITGTEMVNIGTDEYLTGISGTFGIYLDNNVLRSITFTTNLKAHGPYGQKVGTPFSSANVVGNEIVGFLGRSGYYVDAIGTYNRHK has what recorded glycan array binding signal (z-score)?
Resp: -0.251
